Measured IC50 of individual entries
# ASSAYED_SYSTEM: human recombinant COX-2 (Homo sapiens)
# Sequence (P35354 18-604): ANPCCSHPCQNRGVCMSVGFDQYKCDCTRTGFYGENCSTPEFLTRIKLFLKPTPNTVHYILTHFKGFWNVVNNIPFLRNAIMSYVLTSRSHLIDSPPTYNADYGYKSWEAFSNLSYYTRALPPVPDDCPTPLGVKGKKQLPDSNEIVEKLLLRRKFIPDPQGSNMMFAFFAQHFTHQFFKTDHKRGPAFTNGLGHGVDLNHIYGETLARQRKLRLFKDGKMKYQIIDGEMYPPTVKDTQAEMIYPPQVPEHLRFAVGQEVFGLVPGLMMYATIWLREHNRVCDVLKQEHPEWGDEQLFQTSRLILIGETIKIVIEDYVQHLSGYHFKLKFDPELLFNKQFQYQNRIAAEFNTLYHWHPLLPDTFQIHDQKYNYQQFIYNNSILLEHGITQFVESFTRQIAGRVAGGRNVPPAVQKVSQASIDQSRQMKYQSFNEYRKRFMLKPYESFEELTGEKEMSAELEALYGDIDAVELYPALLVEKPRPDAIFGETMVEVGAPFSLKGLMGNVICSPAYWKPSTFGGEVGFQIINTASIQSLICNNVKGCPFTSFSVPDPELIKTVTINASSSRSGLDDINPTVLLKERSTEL
# TEST_PROTOCOL: Cyclooxygenase enzyme assay (TLC method), COX-2
# EXPERIMENTAL_PARAMETERS: human recombinant COX-2, preincubation 90-120 min, [1-14C] arachidonic acid; read-out: IC50 COX-2, inhibition of cyclooxygenase activity
Give the value, in units of nM, as a plain number.

NS(=O)(=O)c1ccc(N2N=C(C(F)(F)F)CC2c2c[nH]c3ccccc23)cc1 (centres unmarked)	78

Please look at the following compound next.
Notebook: NS(=O)(=O)c1ccc(N2N=C(C(F)(F)F)CC2c2ccccc2)cc1 (centres unmarked) , IC50 read as 100
